Hi, quick share: literature IC50 data for Tyrosine-protein kinase JAK2 (Homo sapiens), several sources combined.

IN: Given Cc1ccc(OC[C@H](O)CNc2cc[nH]c(=O)c2-c2nc3c(C)c4c(cc3[nH]2)C(=O)N(C2CCN(C)CC2)C4)c(C)c1 , state its recorded IC50.
OUT: 500 to 5000 nM

IN: Given C[C@H](c1ccc(F)cn1)n1c(=O)[nH]c2cnc(-c3cnn4ccncc34)nc21 , state its recorded IC50.
OUT: < 100 nM

IN: Given N#CCC1(n2cc(-c3ncnc4[nH]ccc34)cn2)CN(C2CCN(Cc3c(F)cccc3C(F)(F)F)CC2)C1 , state its recorded IC50.
OUT: 10 to 50 nM

IN: Given Cc1ncc(-c2cc3nccn3c(-c3cnn(C4(CC#N)CN(CC(F)(F)F)C4)c3)n2)s1 , state its recorded IC50.
OUT: 100 to 1000 nM
